The reported measurements were obtained from ChEMBL document CHEMBL1138186.

Measured Target: Human immunodeficiency virus type 1 integrase (Human immunodeficiency virus 1)
Sequence (Q7ZJM1 whole entry): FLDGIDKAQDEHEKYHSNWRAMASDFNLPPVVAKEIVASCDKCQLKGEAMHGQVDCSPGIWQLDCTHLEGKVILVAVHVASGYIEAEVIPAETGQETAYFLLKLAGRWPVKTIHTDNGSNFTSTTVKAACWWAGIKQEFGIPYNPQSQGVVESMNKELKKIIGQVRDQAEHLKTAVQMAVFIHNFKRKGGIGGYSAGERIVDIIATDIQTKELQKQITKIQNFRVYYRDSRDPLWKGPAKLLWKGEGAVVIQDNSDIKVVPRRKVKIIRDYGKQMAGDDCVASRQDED
Protocol Text: Inhibition of 3'-processing activity of HIV1 integrase
Metric: IC50

Would you please look over these solved cases?
COc1ccc(C2C(C(=O)c3ccco3)=C(O)C(=O)N2CCN2CCOCC2)c(OC)c1 (stereo not given)    > 1000 µM
O=C(O)CCC(=O)Nc1ccc(Cl)c(NC(=O)Cc2ccccc2)c1    > 100 µM
COc1ccc(C2C(C(=O)c3ccccc3)=C(O)C(=O)N2CCCO)cc1OC (stereo not given)    > 100 µM
CCOC(=O)C1=C(O)/C(=C\c2ccc(CNC(=O)C(=O)Nc3ccccc3)o2)N=C1C    > 100 µM

Shift focus to the following entry.
Query string: Reported IC50 for Human immunodeficiency virus type 1 integrase (Human immunodeficiency virus 1), given "COCCCNS(=O)(=O)c1ccc(Oc2cc(O)c3c(c2O)C(=O)c2ccccc2C3=O)cc1" ?
Result string: 100 µM
